tested on: 695427-040-R-J1-PDC complex spheroid viability; test: Anticancer human tumor 695427-040-R-J1-PDC patient-derived colon adenocarcinoma cell line growth inhibition [RAS]; settings: curve of first compound; second compound 0.00949 µM;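 note: viability read after seven days of drug exposure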
property: IC50 (nM)

[A] CCC(CC)c1cc(NC2CCC(N)C2)n2nccc2n1 (centres undefined) + CCn1c(-c2cc(N3CCN(C)CC3)cnc2C(C)OC)c2c3cc(ccc31)-c1csc(n1)CC(NC(=O)C1CC1C)C(=O)N1CCCC(N1)C(=O)OCC(C)(C)C2
[B] CCc1c2c(nc3ccc(O)cc13)-c1cc3c(c(=O)n1C2)COC(=O)[C@]3(O)CC + CCn1c(-c2cc(N3CCN(C)CC3)cnc2C(C)OC)c2c3cc(ccc31)-c1csc(n1)CC(NC(=O)C1CC1C)C(=O)N1CCCC(N1)C(=O)OCC(C)(C)C2
For the pair A and B , which entry has the numerically smaller recorded IC50? Kindly give the label for the entry you pick.
B
(B: 56.8 nM, A: 732 nM)
